# measured_on: 2S-hsINTS13-hsINTS14 (human, UniProt Q9NVM9;Q96SY0)
# Sequence (Q9NVM9 whole entry, chain 1 of 2): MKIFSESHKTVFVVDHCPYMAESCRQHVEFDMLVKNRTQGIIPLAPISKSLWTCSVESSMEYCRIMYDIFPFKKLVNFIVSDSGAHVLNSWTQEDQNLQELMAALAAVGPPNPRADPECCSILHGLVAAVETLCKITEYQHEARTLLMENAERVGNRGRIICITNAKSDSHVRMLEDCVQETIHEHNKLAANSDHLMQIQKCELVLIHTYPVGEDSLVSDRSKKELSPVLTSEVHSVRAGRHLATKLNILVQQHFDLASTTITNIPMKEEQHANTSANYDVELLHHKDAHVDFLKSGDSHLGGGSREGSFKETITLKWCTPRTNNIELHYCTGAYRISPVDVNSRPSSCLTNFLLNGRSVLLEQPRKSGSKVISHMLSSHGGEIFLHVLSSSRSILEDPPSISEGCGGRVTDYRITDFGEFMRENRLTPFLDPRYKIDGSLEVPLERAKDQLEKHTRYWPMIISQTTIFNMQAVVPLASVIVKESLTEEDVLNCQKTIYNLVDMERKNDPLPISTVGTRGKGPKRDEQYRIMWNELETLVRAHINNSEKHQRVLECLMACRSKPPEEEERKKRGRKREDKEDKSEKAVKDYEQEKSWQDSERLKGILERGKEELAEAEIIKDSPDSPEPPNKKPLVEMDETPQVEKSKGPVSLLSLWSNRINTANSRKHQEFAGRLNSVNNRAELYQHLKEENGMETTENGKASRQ
# Sequence (Q96SY0 whole entry, chain 2 of 2): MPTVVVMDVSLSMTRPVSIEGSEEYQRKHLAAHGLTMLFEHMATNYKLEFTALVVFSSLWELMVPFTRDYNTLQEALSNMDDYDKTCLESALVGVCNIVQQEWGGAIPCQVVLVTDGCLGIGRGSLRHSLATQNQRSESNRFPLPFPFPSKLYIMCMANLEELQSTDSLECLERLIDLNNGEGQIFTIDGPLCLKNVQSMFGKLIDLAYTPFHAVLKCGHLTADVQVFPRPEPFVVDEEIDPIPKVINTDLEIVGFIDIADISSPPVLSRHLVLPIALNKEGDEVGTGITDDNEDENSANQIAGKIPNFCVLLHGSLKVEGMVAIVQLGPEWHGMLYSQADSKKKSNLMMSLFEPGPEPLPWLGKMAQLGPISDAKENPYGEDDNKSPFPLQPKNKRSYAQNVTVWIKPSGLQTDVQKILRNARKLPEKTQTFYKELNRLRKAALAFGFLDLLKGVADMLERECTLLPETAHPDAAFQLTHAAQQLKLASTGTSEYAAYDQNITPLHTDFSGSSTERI
# measurement_protocol: fluorescence polarisation
pKd: −log10 of the molar value.
experimental_readout: pKd

INSERT INTO measurements (binder, experimental_readout, censoring_sign, test_result) VALUES
  ('YDSDGDKSDDLVVDVSNE [GFP-hsTLE3 (238-255)]', 'pKd', '<', 5.00),
  ('EGEEDEEGKLVIDEPAK [GFP-hsHDGF S2E (130-146)]', 'pKd', '=', 5.58),
  ('DDWEIGVGNLIIDLDAD [GFP-hsZNF608 (24-40)]', 'pKd', '=', 6.20);
